Reported pIC50 by item:
systemTested: HDAC5 (Homo sapiens (Human), UniProt Q9UQL6)
Sequence (Q9UQL6 whole entry): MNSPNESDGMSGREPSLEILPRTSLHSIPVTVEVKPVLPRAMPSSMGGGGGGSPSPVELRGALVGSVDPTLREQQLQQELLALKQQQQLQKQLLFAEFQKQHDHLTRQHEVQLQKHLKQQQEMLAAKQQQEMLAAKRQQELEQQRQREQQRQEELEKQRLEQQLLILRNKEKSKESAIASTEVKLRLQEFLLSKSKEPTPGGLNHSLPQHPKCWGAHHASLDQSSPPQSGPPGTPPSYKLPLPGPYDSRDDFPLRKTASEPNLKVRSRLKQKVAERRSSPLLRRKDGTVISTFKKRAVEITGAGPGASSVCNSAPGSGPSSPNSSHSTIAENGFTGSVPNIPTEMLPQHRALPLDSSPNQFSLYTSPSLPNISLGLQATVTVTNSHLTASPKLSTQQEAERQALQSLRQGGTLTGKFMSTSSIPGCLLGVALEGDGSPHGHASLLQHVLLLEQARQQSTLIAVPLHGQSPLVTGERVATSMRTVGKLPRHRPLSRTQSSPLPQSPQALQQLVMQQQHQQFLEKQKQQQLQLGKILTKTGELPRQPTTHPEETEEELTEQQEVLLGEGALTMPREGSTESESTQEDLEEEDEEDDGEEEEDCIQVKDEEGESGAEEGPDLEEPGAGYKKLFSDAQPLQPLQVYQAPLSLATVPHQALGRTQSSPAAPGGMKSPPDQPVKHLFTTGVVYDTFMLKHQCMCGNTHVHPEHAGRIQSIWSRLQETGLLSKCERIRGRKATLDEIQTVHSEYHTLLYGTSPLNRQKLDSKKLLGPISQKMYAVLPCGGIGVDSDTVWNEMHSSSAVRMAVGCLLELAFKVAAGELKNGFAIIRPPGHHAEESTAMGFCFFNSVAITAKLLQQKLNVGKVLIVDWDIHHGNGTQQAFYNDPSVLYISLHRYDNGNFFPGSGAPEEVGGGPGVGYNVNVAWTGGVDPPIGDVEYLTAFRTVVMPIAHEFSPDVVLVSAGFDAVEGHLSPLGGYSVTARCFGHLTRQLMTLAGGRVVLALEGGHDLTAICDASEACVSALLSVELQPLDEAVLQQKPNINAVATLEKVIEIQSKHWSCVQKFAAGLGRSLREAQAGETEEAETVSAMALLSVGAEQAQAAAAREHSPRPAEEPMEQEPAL
pIC50: −log10 of the molar value.

INSERT INTO measurements (compound, systemtested, recordedmeasurement) VALUES
  ('Cc1cc(O)cc(C)c1-c1nc2ccc(C(=O)NO)cc2[nH]1', 'HDAC5 (Homo sapiens (Human), UniProt Q9UQL6)', '< 5.00');

Let's switch to this compound now.
// lookup pIC50 | system=HDAC5 (Homo sapiens (Human), UniProt Q9UQL6) | key= O=C(NO)c1ccc2nc(-c3ccccc3C(F)(F)F)[nH]c2c1
< 5.00

----------
Tested on: AMO-1 (plasmacytom)
experimentalProtocol: CellTiter-Blue cell viability assay
Format: cell-based
particulars: Homo sapiens, AMO1; AMO-1 cells, 72 hours of treatment; read-out: IC50 AMO-1 (cell viability)
recordedEndpoint: log10(IC50) (log10 of the value in nM)
Parameter value (number): base-10 log of IC50 in nM.

INSERT INTO results (compound, recordedmeasurement) VALUES
  ('O=C(NO)c1ccc2nc(-c3ccc(-c4ccccc4F)cc3)[nH]c2c1 [Example 167]', 2.15),
  ('O=C(NO)c1ccc2nc(-c3ccc(Br)cc3)[nH]c2c1 [Example 3]', 3.80),
  ('O=C(NO)c1ccc2nc(-c3ccc(-c4ccccc4)c(F)c3)[nH]c2c1 [Example 180]', 2.62),
  ('CC(C)(C)c1ccc(-c2nc3ccc(C(=O)NO)cc3[nH]2)cc1 [Example 159]', 3.80),
  ('CCCCCCCCCc1ccc(-c2nc3ccc(C(=O)NO)cc3[nH]2)cc1 [Example 161]', 3.74),
  ('O=C(NO)c1ccc2nc(-c3ccc(-c4cccc(Cl)c4)cc3)[nH]c2c1 [Example 151]', 3.28),
  ('O=C(NO)c1ccc2nc(-c3cccc(C(F)(F)F)c3Cl)[nH]c2c1 [Example 34]', 4.00),
  ('COc1ccc2cc(-c3nc4ccc(C(=O)NO)cc4[nH]3)ccc2c1 [Example 10]', 3.34),
  ('O=C(NO)c1ccc2nc(-c3ccc(Oc4ccccc4)cc3)[nH]c2c1 [Example 8]', 3.36);

Please look at the following compound next.
# log10(IC50) lookup, item O=C(NO)c1ccc2nc(-c3ccc(-c4cccc(Cl)c4)s3)[nH]c2c1 [Example 177]
3.54

----------
Tested on: AMO-1 (plasmacytom)
experimentalProtocol: CellTiter-Blue cell viability assay
Type: cell-based
particulars: Homo sapiens, AMO1, 72 h, read-out: IC50 AMO-1 (cell viability)
Where a name gives a salt, the structure may show the parent alone.
recordedEndpoint: log10(IC50) (log10 of the value in µM)
Response schema: value (number) is log10 of IC50 in units of µM.

What value of log10(IC50) has been recorded for this entry: O=C(NO)c1ccc2nc(-c3ccc(-c4ccc(CN5CCOCC5)cc4)cc3)[nH]c2c1 [Example 190, trifluoroacetate]
0.91

----------
systemTested: HDAC2 (Homo sapiens (Human))
experimentalProtocol: HDAC in vitro enzymatic assay (fluorescence)
particulars: read-out: IC50 HDAC2; full HDAC panel; top concentration 10 μM
pIC50: −log10 of the molar value.
recordedEndpoint: pIC50

INSERT INTO measurements (molecule, recordedmeasurement) VALUES
  ('O=C(NO)c1ccc2nc(-c3ccccc3C(F)(F)F)[nH]c2c1 [Example 18]', '< 5.00');

Kindly consider the entry below.
Entry Cc1cc(O)cc(C)c1-c1nc2ccc(C(=O)NO)cc2[nH]1 [Example 15] has what pIC50?
< 5.00

----------
systemTested: HDAC6 (Homo sapiens (Human))
experimentalProtocol: HDAC in vitro enzymatic assay (fluorescence)
Type: biochemical
particulars: top concentration 2 μM; read-out: IC50 values for inhibition of HDAC6
Experimental: Biological Tests Method for Measurement of Enzymatic Activity of HDACs Materials & Methods All Examples were tested in HDAC1, 2, 3, 6 and 8 in vitro enzymatic assays. […] After enzymatic reaction, developer was added and after an additional incubation time, fluorescence intensity was measured at an excitation wavelength of 360 nm and an emission wavelength of 460 nm. […]
Structures can show the parent of a compound that is named as a salt.
recordedEndpoint: log10 IC50 (log10 of the value in nM)
Values reflect log10 of reported IC50 (nM).

INSERT INTO results (molecule, recordedmeasurement) VALUES
  ('CN1CCN(Cc2ccc(-c3nc4ccc(C(=O)NO)cc4[nH]3)cc2)CC1 [Example 207]', 0.85);

Given the entry CN(C)C(=O)c1cccc(-c2ccc(-c3nc4ccc(C(=O)NO)cc4[nH]3)cc2)c1 [Example 195] , report its measured log10 IC50.
1.38

Record request: log10 IC50 value, item COCCCNCc1ccc(-c2ccc(-c3nc4ccc(C(=O)NO)cc4[nH]3)cc2)cc1 [Example 191, trifluoroacetate]
1.26

For the molecule O=C(NO)c1ccc2nc(-c3ccc4c(c3)OCCO4)[nH]c2c1 [Example 11] , what log10 IC50 is on record?
2.04

What does the data say about its log10 IC50? Entry: O=C(NO)c1ccc2nc(-c3ccc(-c4ccc(CN5CCCC5)cc4)cc3)[nH]c2c1 [Example 197, trifluoroacetate]
0.56

Which log10 IC50 reading was recorded for the molecule O=C(NO)c1ccc2nc(-c3cccs3)[nH]c2c1 [Example 98] ?
0.85

Return reported log10 IC50; argument: COc1cccc(-c2nc3ccc(C(=O)NO)cc3[nH]2)c1O [Example 85]
1.11

Query (molecule): Cn1c(-c2ccc(-c3ccccc3)cc2)nc2cc(C(=O)NO)ccc21 [Example 225] ; field requested: log10 IC50
0.56

----------
systemTested: HDAC6 (Homo sapiens (Human))
experimentalProtocol: HDAC in vitro enzymatic assay (fluorescence)
Format: biochemical
particulars: top concentration 2 μM; read-out: IC50 values for inhibition of HDAC6
Description: Biological Tests Method for Measurement of Enzymatic Activity of HDACs Materials & Methods All Examples were tested in HDAC1, 2, 3, 6 and 8 in vitro enzymatic assays. […] After enzymatic reaction, developer was added and after an additional incubation time, fluorescence intensity was measured at an excitation wavelength of 360 nm and an emission wavelength of 460 nm. […]
Counter-ions that a name gives are not always drawn.
recordedEndpoint: IC50
Give your result as the value with the unit written after it.

Here are 5 molecules together with their reported answers.
INSERT INTO results (molecule, recordedmeasurement) VALUES
  ('O=C(NO)c1ccc2nc(-c3ccc(-c4ccccc4)cc3)[nH]c2c1', '15 nM'),
  ('CC(C)c1ccc(-c2nc3ccc(C(=O)NO)cc3[nH]2)cc1', '14 nM'),
  ('CCN(CC)CCOc1ccc(-c2nc3ccc(C(=O)NO)cc3[nH]2)cc1', '14 nM'),
  ('C[C@@H]1CN(Cc2ccc(-c3ccc(-c4nc5ccc(C(=O)NO)cc5[nH]4)cc3)cc2)C[C@H](C)O1', '13 nM'),
  ('O=C(NO)c1ccc2nc(-c3ccccc3-c3ccccc3)[nH]c2c1', '14 nM');

Identify the measured IC50 of COc1ccc(Oc2cccc(-c3nc4ccc(C(=O)NO)cc4[nH]3)c2)cc1 for HDAC6 (Homo sapiens (Human)).
6.6 nM

Form: Entry = O=C(NO)c1ccc2nc(-c3ccnc4ccccc34)[nH]c2c1 [Example 66, trifluoroacetate] | System = HDAC6 (Homo sapiens (Human)) | IC50 = ____
14 nM

Field: IC50 (HDAC6 (Homo sapiens (Human))). Entry: CS(=O)(=O)Nc1ccc(-c2ccc(-c3nc4ccc(C(=O)NO)cc4[nH]3)cc2)cc1
7.2 nM

----------
systemTested: HDAC2 (Homo sapiens (Human), UniProt Q92769)
Sequence (Q92769 whole entry): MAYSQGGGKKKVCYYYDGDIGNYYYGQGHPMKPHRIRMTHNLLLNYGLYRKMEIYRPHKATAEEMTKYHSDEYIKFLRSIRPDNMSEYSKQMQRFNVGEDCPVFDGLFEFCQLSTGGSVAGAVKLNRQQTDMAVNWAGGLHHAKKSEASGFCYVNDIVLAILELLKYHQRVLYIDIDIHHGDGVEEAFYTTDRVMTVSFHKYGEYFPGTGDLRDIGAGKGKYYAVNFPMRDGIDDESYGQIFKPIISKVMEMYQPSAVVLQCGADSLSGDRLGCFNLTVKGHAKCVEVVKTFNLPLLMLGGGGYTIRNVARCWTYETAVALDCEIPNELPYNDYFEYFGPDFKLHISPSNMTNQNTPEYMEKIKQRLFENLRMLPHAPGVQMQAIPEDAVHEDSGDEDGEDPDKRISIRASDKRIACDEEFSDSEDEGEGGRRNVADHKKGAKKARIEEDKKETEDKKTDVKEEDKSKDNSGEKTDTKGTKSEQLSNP
experimentalProtocol: HDAC in vitro enzymatic assay (fluorescence)
particulars: read-out: IC50 HDAC2; selectivity profiling; top concentration 200 μM
Where a name gives a salt, the structure may show the parent alone.
Listed here are compounds together with their documented pIC50.
pIC50 is a log-scale quantity: -log10 of the concentration expressed in molar.

Completed entries (count: 5):
INSERT INTO assay_data (compound, systemtested, recordedmeasurement) VALUES
  ('O=C(NO)c1ccc2nc(-c3ccc(-c4ccc(CN5CCOCC5)cc4)cc3)[nH]c2c1 [Example 190, trifluoroacetate]', 'HDAC2 (Homo sapiens (Human), UniProt Q92769)', 4.89),
  ('CC(C)c1ccc(-c2nc3cc(C(=O)NO)ccc3n2C)cc1', 'HDAC2 (Homo sapiens (Human), UniProt Q92769)', 4.22),
  ('O=C(NO)c1ccc2nc(-c3cccs3)[nH]c2c1', 'HDAC2 (Homo sapiens (Human), UniProt Q92769)', 4.62),
  ('CN1CCN(Cc2ccc(-c3nc4ccc(C(=O)NO)cc4[nH]3)cc2)CC1', 'HDAC2 (Homo sapiens (Human), UniProt Q92769)', 5.11),
  ('O=C(NO)c1ccc2nc(-c3ccc(-c4ccccc4)cc3)[nH]c2c1', 'HDAC2 (Homo sapiens (Human), UniProt Q92769)', 3.80);

We next turn to a different compound, shown below.
Tell me the measured pIC50 of O=C(NO)c1ccc2nc(-c3ccccc3-c3ccccc3)[nH]c2c1 , please.
4.54

The reported measurements were obtained from patent US10512634B2.
